Measured values drawn from ChEMBL document CHEMBL4130620 for this set.

Documented inhibition at 100 µM across a set of compounds
- tgt: UniProtKB P03372
- Sequence (P03372 whole entry): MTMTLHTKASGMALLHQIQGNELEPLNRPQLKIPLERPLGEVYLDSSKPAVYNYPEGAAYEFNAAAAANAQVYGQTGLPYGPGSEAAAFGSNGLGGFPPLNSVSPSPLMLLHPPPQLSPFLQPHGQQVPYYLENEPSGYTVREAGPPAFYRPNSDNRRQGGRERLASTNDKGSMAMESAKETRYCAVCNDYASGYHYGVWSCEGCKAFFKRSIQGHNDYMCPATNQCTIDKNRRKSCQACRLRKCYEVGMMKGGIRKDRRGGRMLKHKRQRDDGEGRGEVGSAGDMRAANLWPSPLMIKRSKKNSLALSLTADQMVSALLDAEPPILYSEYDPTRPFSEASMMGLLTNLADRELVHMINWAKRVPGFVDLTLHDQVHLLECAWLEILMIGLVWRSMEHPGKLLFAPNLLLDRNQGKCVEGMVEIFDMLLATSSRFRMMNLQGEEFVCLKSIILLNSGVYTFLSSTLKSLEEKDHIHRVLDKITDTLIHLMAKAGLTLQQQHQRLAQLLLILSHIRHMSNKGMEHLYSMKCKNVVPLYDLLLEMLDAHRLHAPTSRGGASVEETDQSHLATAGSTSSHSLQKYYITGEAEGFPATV
- method.notes: Displacement of Fluor.ES2 Green from human ERalpha at 100000 nM by TR-FRET competitive binding assay
- test.conditions: probe Fluor.ES2 Green
Report as a plain number; the unit % is understood.

Below, 2 compounds whose answers are already recorded.
> print(dat)
                                   molecule         quantity.kind  units.of.measure  readout.value
1             CCCCOC(=O)c1cc(OC)c(O)c(OC)c1  inhibition at 100 µM                 %             20
2  CCCCOC(=O)c1cc([N+](=O)[O-])c(O)c([N+](=O)[O-])c1  inhibition at 100 µM                 %             20

Now turn to the next compound.
Identify inhibition at 100 µM associated with the compound CCCCOC(=O)c1cc(C(C)(C)C)c(O)c(C(C)(C)C)c1 20
